# System: COLO205
# protocol summary: Anti-proliferative activity, CellTiter-96 assay, COLO205
# Assay type: cell-based
# test context: Homo sapiens, COLO 205, COLO205 cells, 72 hours incubation
pIC50: −log10 of the molar value.
Listed next: entries and their corresponding pIC50.

Some compounds with known pIC50 results, for comparison:
Could you share which pIC50 value was measured for COc1cccc(-c2ccc3ncnc(Nc4cccc5[nH]ncc45)c3c2)c1F [Compound 74] ?
< 4.30

I am curious: what pIC50 value has been reported for COc1cc(-c2ccc3nccc(Nc4cccc5[nH]ncc45)c3c2)ccc1O [Compound 103] ?
5.05

Could you now look at the following compound, please?
Any idea what pIC50 was measured for N#Cc1cccc(-c2ccc3ncnc(Nc4cccc5[nH]ncc45)c3c2)c1 [Compound 102] ?
< 4.30

* * *

# system tested: B-Raf (Homo sapiens (Human), UniProt P15056)
# Sequence (P15056 whole entry): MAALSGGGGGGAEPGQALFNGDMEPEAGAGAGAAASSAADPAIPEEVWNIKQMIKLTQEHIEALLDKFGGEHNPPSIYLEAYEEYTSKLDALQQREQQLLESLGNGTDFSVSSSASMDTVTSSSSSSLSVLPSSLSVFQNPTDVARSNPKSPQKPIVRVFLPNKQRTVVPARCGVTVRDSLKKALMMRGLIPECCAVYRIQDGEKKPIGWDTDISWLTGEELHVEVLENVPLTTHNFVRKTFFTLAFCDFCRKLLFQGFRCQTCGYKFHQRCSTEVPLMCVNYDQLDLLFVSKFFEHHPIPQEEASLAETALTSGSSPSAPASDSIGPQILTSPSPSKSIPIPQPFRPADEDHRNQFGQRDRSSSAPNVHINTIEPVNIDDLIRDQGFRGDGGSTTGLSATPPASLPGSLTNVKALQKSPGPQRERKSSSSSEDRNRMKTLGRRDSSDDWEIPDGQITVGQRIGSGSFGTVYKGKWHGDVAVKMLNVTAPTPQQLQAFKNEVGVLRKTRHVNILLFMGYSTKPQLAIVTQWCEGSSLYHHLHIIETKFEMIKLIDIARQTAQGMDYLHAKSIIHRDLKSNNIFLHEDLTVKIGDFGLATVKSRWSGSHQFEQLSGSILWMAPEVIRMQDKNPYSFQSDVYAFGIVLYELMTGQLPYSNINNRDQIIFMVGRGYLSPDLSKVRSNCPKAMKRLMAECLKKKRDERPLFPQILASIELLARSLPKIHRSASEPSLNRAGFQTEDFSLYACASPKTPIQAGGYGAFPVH
# protocol summary: Raf kinase assay (B-Raf), [33P] incorporation into MEK1(K97R)
# Type: biochemical
measured parameter: IC50 (nM)

What value of IC50 has been reported for the following compound? CS(=O)(=O)Nc1ccc(-c2ccc3ncnc(Nc4cccc5[nH]ncc45)c3c2)cc1
366

# lookup: IC50 of Clc1ccc(-c2ccc3ncnc(Nc4cccc5[nH]ncc45)c3c2)cc1
287

What value of measured IC50 is listed for COc1cc(-c2ccc3ncnc(Nc4c(F)ccc5[nH]ncc45)c3c2)ccc1O ?
350

* * *

# system tested: B-Raf (Homo sapiens (Human), UniProt P15056)
# protocol summary: Raf kinase assay (B-Raf), [33P] incorporation into MEK1(K97R)
# Type: biochemical
# Experimental: A. Raf Kinase Assays (B-Raf, B-raf (V600E), and C-Raf) Inhibition of kinase activity by test compound disclosed herein was estimated by quantifying the amount of [^33P] incorporation of substrate in the presence of test compound. […] Reactions were incubated at 30° C. for 30 min and stopped by adding 3% phosphoric acid, harvested onto a 96-well GF/B UniFilter (PerkinElmer) using a unifilter harvester (PerkinElmer), and counted with a TopCount microplate scintillation counter (PerkinElmer). […]
measured parameter: IC50 (nM)

Solved entries:
What value of IC50 on B-Raf (Homo sapiens (Human), UniProt P15056) does COc1cc(-c2ccc3ncnc(Nc4ccccc4C(N)=O)c3c2)ccc1O have?
667

Provide value of IC50 for this record tested with B-Raf (Homo sapiens (Human), UniProt P15056): COc1ccc(-c2ccc3ncnc(Nc4cccc5[nH]ncc45)c3c2)cc1C=O
73.9

Report IC50 for COc1cc(-c2ccc3ncnc(Nc4ccc(F)cc4)c3c2)ccc1O tested on B-Raf (Homo sapiens (Human), UniProt P15056).
1150

Item COc1cc(-c2ccc3ncnc(Nc4ccc(F)cc4F)c3c2)ccc1O with B-Raf (Homo sapiens (Human), UniProt P15056) - IC50?
594

Short answer please: IC50, B-Raf (Homo sapiens (Human), UniProt P15056), entry COc1ccc(-c2ccc3nccc(Nc4cccc5[nH]ncc45)c3c2)cc1OC
263

Please provide the recorded IC50 for CS(=O)(=O)c1ccc(-c2ccc3nccc(Nc4cccc5[nH]ncc45)c3c2)cc1 , tested on B-Raf (Homo sapiens (Human), UniProt P15056).
134

Provide value of IC50 for this record tested with B-Raf (Homo sapiens (Human), UniProt P15056): Oc1ccc(-c2ccc3ncnc(Nc4ccccc4)c3c2)cc1
3990

Identify the measured IC50 of COc1cc(-c2ccc3ncnc(Nc4ccc(C)c(O)c4)c3c2)ccc1O for B-Raf (Homo sapiens (Human), UniProt P15056).
177

Lab request: please report IC50 under test system B-Raf (Homo sapiens (Human), UniProt P15056) for COc1cc(-c2ccc3ncnc(Nc4cccc(OC(F)F)c4)c3c2)ccc1O
548

Test system B-Raf (Homo sapiens (Human), UniProt P15056); read-out IC50; what value for COc1cc(-c2ccc3ncnc(Nc4ccc5c(c4)OCO5)c3c2)ccc1O ?
660

[P] COc1cccc(-c2ccc3ncnc(Nc4cccc(O)c4)c3c2)c1
[Q] COc1cccc(-c2ccc3ncnc(Nc4ccccc4)c3c2)c1
[R] COc1cc(-c2ccc3ncnc(Nc4cccc([N+](=O)[O-])c4)c3c2)ccc1O
[S] COc1ccc(-c2ccc3ncnc(Nc4cccc5[nH]ncc45)c3c2)cc1F
With regard to IC50, arrange the entries in ascending order, please. To answer, write out the labels according to the requested order.
P, S, R, Q
(P: 103 nM, S: 157 nM, R: 256 nM, Q: 3290 nM)

* * *

# system tested: B-Raf (Homo sapiens (Human))
# protocol summary: Raf kinase assay (B-Raf), [33P] incorporation into MEK1(K97R)
# Format: biochemical
# test context: 1.0 μM compound; read-out: B-Raf inhibition at 1.0 μM
measured parameter: inhibition at 1 µM (%)

Name the recorded inhibition at 1 µM for COc1cc(-c2ccc3nccc(Nc4cc(O)ccc4F)c3c2)ccc1O .
97.1

# lookup: inhibition at 1 µM of COc1cc(-c2ccc3ncnc(Nc4cccc(O)c4Cl)c3c2)ccc1O
91

GET /values?readout=inhibition at 1 µM&item= Cc1ccc(F)cc1-c1ccc2ncnc(Nc3cccc4[nH]ncc34)c2c1
81.1

What does the record list as inhibition at 1 µM for COc1cc(-c2ccc3ncnc(Nc4ccccc4F)c3c2)ccc1O ?
67.1

Name the reported inhibition at 1 µM value associated with the compound COc1ccc(-c2ccc3ncnc(Nc4cccc5[nH]ncc45)c3c2)c(C)c1
61.7

Which measured inhibition at 1 µM value corresponds to CCS(=O)(=O)Nc1ccc(-c2ccc3ncnc(Nc4cccc(NS(=O)(=O)CC)c4)c3c2)cc1 ?
45.7

[P] Oc1ccc(-c2ccc3nccc(Nc4cccc5[nH]ncc45)c3c2)cc1
[Q] COc1cc(-c2ccc3ncnc(Nc4ccc5c(c4)OCO5)c3c2)ccc1O
inhibition at 1 µM comparison. Which is larger, P or Q ? Output the label that corresponds to your choice.
P

* * *

# system tested: C-Raf (Homo sapiens (Human))
# protocol summary: Raf kinase assay (C-Raf), [33P] incorporation into MEK1(K97R)
# Format: biochemical
measured parameter: IC50 (nM)

Consider the following illustrative entries.
Write down the reported IC50 of Oc1c(F)ccc(Nc2ncnc3ccc(-c4ccc(Cl)cc4)cc23)c1F , test system: C-Raf (Homo sapiens (Human)).
3510

// fetch C-Raf (Homo sapiens (Human)) IC50 for Oc1cccc(-c2ccc3nccc(Nc4cccc5[nH]ncc45)c3c2)c1
584

Which IC50 is reported with C-Raf (Homo sapiens (Human)) for this entry: COc1cc(-c2cc3c(Nc4cc(O)ccc4Cl)ncnc3cc2OC)ccc1O ?
245

Look up IC50 with C-Raf (Homo sapiens (Human)) for this molecule: COc1cc(-c2ccc3ncnc(Nc4cc(O)ccc4C)c3c2)ccc1O
590

[1] CCCS(=O)(=O)Nc1cccc(-c2ccc3ncnc(Nc4cccc5[nH]ncc45)c3c2)c1
[2] COc1cc(-c2cc3c(Nc4cccc(O)c4)ncnc3cc2OC)ccc1O
[3] COc1ccc(-c2ccc3nccc(Nc4cccc5[nH]ncc45)c3c2)cc1C=O
[4] CN(C)c1ccc(-c2ccc3ncnc(Nc4cccc5[nH]ncc45)c3c2)cc1
Highest IC50 first, then in falling order down to the smallest. Labels, ranked as asked.
4, 2, 1, 3

* * *

# system tested: C-Raf (Homo sapiens (Human), UniProt P04049)
# Sequence (P04049 whole entry): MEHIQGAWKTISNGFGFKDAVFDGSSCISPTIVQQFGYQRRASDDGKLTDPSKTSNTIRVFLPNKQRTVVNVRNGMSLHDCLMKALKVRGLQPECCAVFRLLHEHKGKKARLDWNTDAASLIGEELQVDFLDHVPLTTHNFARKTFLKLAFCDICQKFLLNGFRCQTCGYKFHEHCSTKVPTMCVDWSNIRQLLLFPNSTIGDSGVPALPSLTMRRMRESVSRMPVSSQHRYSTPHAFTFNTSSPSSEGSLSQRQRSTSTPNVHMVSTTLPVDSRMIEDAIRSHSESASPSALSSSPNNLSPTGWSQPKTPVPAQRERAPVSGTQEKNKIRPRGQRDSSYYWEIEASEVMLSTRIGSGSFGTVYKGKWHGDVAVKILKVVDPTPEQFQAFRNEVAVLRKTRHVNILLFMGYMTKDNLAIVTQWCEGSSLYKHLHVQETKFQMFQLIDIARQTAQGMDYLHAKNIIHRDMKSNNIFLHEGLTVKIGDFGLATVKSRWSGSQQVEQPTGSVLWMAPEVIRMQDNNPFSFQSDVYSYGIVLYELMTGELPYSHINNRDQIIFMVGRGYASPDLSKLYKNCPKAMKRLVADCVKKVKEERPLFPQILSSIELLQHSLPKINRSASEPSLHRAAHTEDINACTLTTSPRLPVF
# protocol summary: Raf kinase assay (C-Raf), [33P] incorporation into MEK1(K97R)
# Format: biochemical
measured parameter: IC50 (nM)

[a] COc1ccc(-c2ccc3nccc(Nc4cccc5[nH]ncc45)c3c2)cc1OC [Compound 113]
[b] COc1cc(-c2ccc3ncnc(Nc4cc(O)c(Cl)cc4F)c3c2)ccc1O [Compound 159]
[c] COc1cc(-c2ccc3ncnc(Nc4cc(O)c(Cl)cc4Cl)c3c2)ccc1O [Compound 61]
Rank by decreasing IC50 the items listed here. Provide your answer as the labels ordered per the instruction.
a, c, b
(a: 972 nM, c: 284 nM, b: 69.2 nM)

* * *

# system tested: B-Raf (V600E) (Homo sapiens (Human), UniProt P15056, V600E)
# Sequence (P15056 whole entry V600E): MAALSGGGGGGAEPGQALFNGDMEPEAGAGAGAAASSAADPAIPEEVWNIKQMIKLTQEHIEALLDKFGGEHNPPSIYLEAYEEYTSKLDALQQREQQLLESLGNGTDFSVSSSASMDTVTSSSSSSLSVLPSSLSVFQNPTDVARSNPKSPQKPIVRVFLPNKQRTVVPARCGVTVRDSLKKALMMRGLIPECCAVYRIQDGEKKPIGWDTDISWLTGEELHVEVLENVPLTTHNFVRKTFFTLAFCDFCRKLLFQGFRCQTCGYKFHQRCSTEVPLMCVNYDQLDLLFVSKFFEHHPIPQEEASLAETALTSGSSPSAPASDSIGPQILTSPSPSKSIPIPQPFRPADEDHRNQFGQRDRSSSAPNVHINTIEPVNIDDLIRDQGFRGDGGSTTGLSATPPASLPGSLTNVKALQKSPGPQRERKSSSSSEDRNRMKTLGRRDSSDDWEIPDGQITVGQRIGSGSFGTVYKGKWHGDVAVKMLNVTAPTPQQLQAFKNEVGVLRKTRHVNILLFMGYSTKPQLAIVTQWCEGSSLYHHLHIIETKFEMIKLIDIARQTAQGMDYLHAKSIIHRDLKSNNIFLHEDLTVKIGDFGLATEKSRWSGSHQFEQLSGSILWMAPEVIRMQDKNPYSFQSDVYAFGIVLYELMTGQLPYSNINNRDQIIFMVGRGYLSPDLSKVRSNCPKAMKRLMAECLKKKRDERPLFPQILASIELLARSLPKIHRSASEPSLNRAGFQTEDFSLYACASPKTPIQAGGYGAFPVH
# protocol summary: Raf kinase assay (B-Raf (V600E)), [33P] incorporation into MEK1(K97R)
# Assay type: biochemical
measured parameter: IC50 (nM)

[A] COc1cc(-c2ccc3ncnc(Nc4cccc(NC(=O)C(F)(F)F)c4)c3c2)ccc1O
[B] COc1cc(-c2ccc3ncnc(Nc4ccc5[nH]nnc5c4)c3c2)ccc1O
Larger number for IC50: A , or B ? Your answer should be the label of the entry you select.
B

[A] COc1cc(-c2ccc3ncnc(Nc4cccc(F)c4)c3c2)ccc1O
[B] Nc1ccc(-c2ccc3ncnc(Nc4cccc5[nH]ncc45)c3c2)cc1
Of A versus B , which is the one with smaller reported IC50? When you have decided, please share the label of that item.
B

[1] Fc1ccccc1-c1ccc2nccc(Nc3cccc4[nH]ncc34)c2c1
[2] COc1cc(-c2ccc3ncnc(Nc4cc(O)ccc4Cl)c3c2)ccc1O
[3] COc1cc(-c2ccc3ncnc(Nc4ccc5nc[nH]c5c4)c3c2)ccc1O
[4] COc1cc(-c2ccc3ncnc(Nc4cc(O)ccc4F)c3c2)ccc1O
With regard to IC50, arrange the entries in ascending order, please. Answer by writing out the labels in the requested order.
4, 2, 1, 3
